- tested system: T1, human DLL4, full length, overexpressed on cells (human, UniProt Q9NR61 27-685)
- T1 construct: CHO cells in FMAT, HEK293 cells in the reporter assay; also called hDLL4; CHO-hDLL4
- measurement notes: FMAT, hNotch1-Fc on CHO-hDLL4, +25 uM HSA
assay metric: % inh (%)

1) VEGFDLLBII013 (bispecific antibody, PEGylated at the Cys at position 15 of the 35 Gly-Ser linker, VEGFBII23B04 - 35GS(Cys15) - DLLBII129B05) EVQLVESGGGLVQTGDSLRLSCEVSGRTFSSYSMGWFRQAQGKEREFVVAISKGGYKYDSVSLEGRFTISKDNAKNTVYLQINSLKPEDTAVYYCASSRAYGSSRLRLADTYEYWGQGTQVTVSSGGGGSGGGGSGGGGCGGGGSGGGGSGGGGSGGGGSEVQLVESGGGLVQAGGSLRLSCAASGRTFSSYAMAWYRQAPGKEREYVAAIRWSGGTAYYADSVQGRFTISRDNAKNTVYLQMNSLKPEDTAVYYCANRAPDTRLAPYEYDHWGQGTQVTVSS :: 100
2) VEGFDLLBII012 (bispecific antibody, PEGylated at the Cys at position 15 of the 35 Gly-Ser linker, VEGFBII23B04 - 35GS(Cys15) - DLLBII136C07) EVQLVESGGGLVQTGDSLRLSCEVSGRTFSSYSMGWFRQAQGKEREFVVAISKGGYKYDSVSLEGRFTISKDNAKNTVYLQINSLKPEDTAVYYCASSRAYGSSRLRLADTYEYWGQGTQVTVSSGGGGSGGGGSGGGGCGGGGSGGGGSGGGGSGGGGSEVQLVESGGGLVQPGGSLRLSCAASGFTFGSYDMSWVRRSPGKGPEWVSSINSGGGSTYYADYVKGRFTISRDNAKNTLYLQMNSLKPEDTAVYYCAADRYIWARQGEYWGAYEYDYWGQGTQVTVSS :: 100
3) DLLBII129B05 (VHH, not shown: small tags and cut ends) VHH: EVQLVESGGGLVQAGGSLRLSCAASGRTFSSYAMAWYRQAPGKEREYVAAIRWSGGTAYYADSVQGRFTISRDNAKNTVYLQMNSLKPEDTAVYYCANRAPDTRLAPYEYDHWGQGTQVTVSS :: 90
4) DLLBII136C07 (VHH, not shown: small tags and cut ends) VHH: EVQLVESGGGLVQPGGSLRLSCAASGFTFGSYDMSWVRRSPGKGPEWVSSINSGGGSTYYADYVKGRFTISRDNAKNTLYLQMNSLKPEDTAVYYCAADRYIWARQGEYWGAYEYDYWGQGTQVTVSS :: 94

These data points were gathered from patent US20140120095A1.
